# target-or-test-system: human FAK (Homo sapiens)
# Construct: The complete cDNA of human FAK; made in house; host or cells: baculovirus expression system (vector pFastBac HTc)
# Sequence (Q05397 whole entry): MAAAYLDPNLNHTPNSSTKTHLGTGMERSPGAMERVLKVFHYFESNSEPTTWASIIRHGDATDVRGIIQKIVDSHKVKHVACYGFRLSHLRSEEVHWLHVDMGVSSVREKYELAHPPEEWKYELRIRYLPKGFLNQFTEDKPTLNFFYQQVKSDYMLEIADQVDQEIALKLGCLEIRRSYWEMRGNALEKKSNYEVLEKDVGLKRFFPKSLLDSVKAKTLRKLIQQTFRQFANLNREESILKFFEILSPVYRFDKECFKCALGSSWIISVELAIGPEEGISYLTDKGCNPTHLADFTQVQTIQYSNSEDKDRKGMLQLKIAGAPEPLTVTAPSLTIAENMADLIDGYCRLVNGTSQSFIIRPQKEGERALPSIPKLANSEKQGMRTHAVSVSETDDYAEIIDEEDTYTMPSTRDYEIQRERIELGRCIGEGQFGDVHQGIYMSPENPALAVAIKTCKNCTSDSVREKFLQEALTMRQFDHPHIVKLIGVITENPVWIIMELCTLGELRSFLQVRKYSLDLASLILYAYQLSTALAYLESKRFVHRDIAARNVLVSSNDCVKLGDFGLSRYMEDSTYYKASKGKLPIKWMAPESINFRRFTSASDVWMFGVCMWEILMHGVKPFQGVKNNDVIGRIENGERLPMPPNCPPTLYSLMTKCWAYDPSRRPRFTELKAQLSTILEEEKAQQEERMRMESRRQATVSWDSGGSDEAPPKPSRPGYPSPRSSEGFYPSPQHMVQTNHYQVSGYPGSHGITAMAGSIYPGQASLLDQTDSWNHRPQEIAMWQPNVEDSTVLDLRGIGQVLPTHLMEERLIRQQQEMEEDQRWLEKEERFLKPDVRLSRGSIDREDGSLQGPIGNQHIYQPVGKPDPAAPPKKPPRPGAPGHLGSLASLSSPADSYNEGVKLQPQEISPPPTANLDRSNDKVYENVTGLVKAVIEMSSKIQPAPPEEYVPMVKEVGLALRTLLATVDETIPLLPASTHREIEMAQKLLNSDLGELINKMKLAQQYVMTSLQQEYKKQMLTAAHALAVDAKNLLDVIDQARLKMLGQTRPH
# assay-notes: FAK autophosphorylation inhibition, time resolved fluorescence (HTRF) assay
# Format: biochemical
# run-conditions: 10 μM (values without asterisk); read-out: FAK % inhib at 10 μM
// reported inhibition at 10 µM per item
Output spec: scalar in %, unitless text.

Solved entries (count: 3):
CC(=O)c1ccc(-c2n[nH]c3ccc(NS(=O)(=O)c4ccccc4S(C)(=O)=O)cc23)cc1
91
COc1cccc(S(=O)(=O)Nc2ccc3[nH]nc(-c4ccccc4)c3c2)c1
56
CS(=O)(=O)c1ccccc1S(=O)(=O)Nc1ccc2[nH]nc(-c3ccc(-c4ccccc4)c(F)c3)c2c1
70

Ask: Record request: inhibition at 10 µM value, item O=C(NCc1ccc(S(=O)(=O)Nc2ccc3[nH]nc(-c4ccccc4)c3c2)s1)c1ccccc1
Reply: 6

Ask: # input molecule: CCS(=O)(=O)Nc1ccc2[nH]nc(-c3ccccc3)c2c1 ; wanted: its inhibition at 10 µM
Reply: 32

Ask: So what's the measured inhibition at 10 µM for this one? CS(=O)(=O)c1ccccc1S(=O)(=O)Nc1ccc2[nH]nc(Nc3ccccc3)c2c1
Reply: 92

Ask: For CC(C)c1cccc(-c2n[nH]c3ccc(NS(=O)(=O)c4ccccc4S(C)(=O)=O)cc23)c1 , what is its reported inhibition at 10 µM?
Reply: 86

Ask: For the molecule CS(=O)(=O)c1ccccc1S(=O)(=O)Nc1ccc2[nH]nc(-c3ccccc3)c2c1 , what inhibition at 10 µM is on record?
Reply: 89

Ask: GET /values?readout=inhibition at 10 µM&item= CSc1ccccc1-c1n[nH]c2ccc(NS(=O)(=O)c3ccccc3S(C)(=O)=O)cc12
Reply: 61
